# Assay system: human soluble guanylate cyclase alpha 1 and beta 1 subunits (sGC) (Homo sapiens (Human), UniProt Q02108+Q02153)
# Sequence (Q02108 whole entry partner): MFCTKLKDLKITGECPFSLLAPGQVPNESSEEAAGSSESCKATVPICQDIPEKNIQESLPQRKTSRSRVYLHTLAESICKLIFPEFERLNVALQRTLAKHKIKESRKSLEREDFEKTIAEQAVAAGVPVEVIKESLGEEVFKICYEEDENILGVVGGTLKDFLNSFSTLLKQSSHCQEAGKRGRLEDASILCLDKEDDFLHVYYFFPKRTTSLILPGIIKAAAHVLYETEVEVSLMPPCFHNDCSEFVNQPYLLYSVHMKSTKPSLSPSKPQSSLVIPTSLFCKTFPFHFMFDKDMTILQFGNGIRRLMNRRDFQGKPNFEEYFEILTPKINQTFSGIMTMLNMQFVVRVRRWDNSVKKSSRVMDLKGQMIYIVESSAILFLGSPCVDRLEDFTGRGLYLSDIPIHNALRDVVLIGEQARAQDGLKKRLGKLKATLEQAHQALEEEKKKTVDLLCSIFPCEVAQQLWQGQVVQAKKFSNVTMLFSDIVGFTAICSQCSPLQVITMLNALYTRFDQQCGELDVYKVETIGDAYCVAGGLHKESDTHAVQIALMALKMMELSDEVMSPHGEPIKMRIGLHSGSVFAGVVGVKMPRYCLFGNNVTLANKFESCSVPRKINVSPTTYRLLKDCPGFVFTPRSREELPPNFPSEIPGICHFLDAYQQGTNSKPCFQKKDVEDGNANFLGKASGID
# Sequence (Q02153 whole entry): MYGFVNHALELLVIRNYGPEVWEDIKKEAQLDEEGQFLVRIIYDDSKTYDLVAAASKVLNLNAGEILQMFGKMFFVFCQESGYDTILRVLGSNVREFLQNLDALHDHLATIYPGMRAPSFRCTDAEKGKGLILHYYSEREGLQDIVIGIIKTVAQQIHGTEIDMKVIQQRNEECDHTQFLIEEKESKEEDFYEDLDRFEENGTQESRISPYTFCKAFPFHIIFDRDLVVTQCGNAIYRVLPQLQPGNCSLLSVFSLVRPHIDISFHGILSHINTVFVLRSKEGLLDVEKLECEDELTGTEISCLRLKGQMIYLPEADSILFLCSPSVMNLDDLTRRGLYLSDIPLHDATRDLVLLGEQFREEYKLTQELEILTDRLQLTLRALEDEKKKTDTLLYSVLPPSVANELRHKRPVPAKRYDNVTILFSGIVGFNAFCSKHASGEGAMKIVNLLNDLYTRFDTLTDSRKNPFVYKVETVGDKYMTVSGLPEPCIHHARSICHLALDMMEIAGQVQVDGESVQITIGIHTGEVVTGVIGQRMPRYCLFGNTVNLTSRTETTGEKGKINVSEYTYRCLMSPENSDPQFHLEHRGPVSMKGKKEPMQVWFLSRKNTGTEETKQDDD
# Assay remarks: sGC cellular activator assay (cGMP, HTRF), in the presence and absence of 50% human serum
# Format: cell-based
# Condition context: CHO cells stably expressing human sGC alpha 1/beta 1, preincubated with 40 microM ODQ; cGMP by HTRF; Table 2 does not state whether with or without 50% human serum
Quantity: EC50 (µM)

CO[C@@H]1CN(c2nc(-c3cc(F)cc(C)c3OCc3ccc4c(c3C)CCN(C3CCOCC3)CC4)cs2)CC[C@@H]1C(=O)O    0.013

(I) Cc1cccc(-c2csc(N3C[C@H]4C[C@@]4(C(=O)O)[C@@H]3C)n2)c1OCc1ccc2c(c1C)CCN(C1COC1)C2
(II) COc1cc(COc2c(C)cccc2-c2csc(N3CC[C@@H](C(=O)O)[C@@H](OC)C3)n2)c(F)c2c1CN(C1CCOCC1)CC2
Q: When their EC50 values are compared, which is larger, I or II ? Your choice should be expressed through its label.
A: I
(I: 0.387 µM, II: 0.002 µM)

(P) Cc1ccc(OCc2ccc3c(c2)CCN(C2CCOCC2)C3)c(-c2csc(N3CC[C@@]4(C(=O)O)C[C@H]4C3)n2)c1
(Q) Cc1c(COc2ccccc2-c2ccnc(N3C[C@@H]4C[C@]4(C(=O)O)C3)n2)ccc2c1CCN(C1CCOCC1)C2
(R) CCO[C@@H]1CN(c2cccc(-c3cccc(C)c3OCc3cc4c(c(OC)c3)CN(C3CCOCC3)CC4)n2)CC[C@@H]1C(=O)O
Q: // ranking: key=EC50, reverse=True Please reply with the labels ordered as requested. Many thanks.
A: Q, P, R
(Q: 0.15 µM, P: 0.017 µM, R: 0.006 µM)

(1) CO[C@@H]1CN(c2cccc(-c3cccc(C)c3OCc3ccc4c(c3C)CN(C3CCOCC3)C4)n2)CC[C@@H]1C(=O)O
(2) Cc1ccc(OCc2cc(C)c3c(c2C)CCN(CC2COCCO2)C3)c(-c2csc(N3CC[C@@]4(C(=O)O)C[C@H]4C3)n2)c1 (stereo partly shown)
Q: Problem: Given the entries 1 and 2 , determine which has the lower reported EC50. Mark your answer with the label of the selected entry.
A: 2

(1) CCc1cc(COc2c(C)cccc2-c2cccc(N3C[C@@H]4C[C@]4(C(=O)O)[C@H]3COC)n2)cc2c1CN(C1CCOCC1)CC2
(2) Cc1cccc(-c2csc(N3C[C@@H]4C[C@]4(C(=O)O)C3)n2)c1OCc1ccc2c(c1)CCN(C1CCOCC1)C2
Q: When 1 and 2 are compared, which has the higher number for EC50? Respond using the label that marks the chosen record.
A: 2

====

# Assay remarks: physchem
# Condition context: pH 2.2, aqueous buffer, kinetic from dmso stock, Solubility (pH 2.2)
Quantity: solubility at 24 h (mg/mL)

COCC(C)N1CCc2c(ccc(COc3ccccc3-c3cccc(N4CC[C@@]5(C(=O)O)C[C@H]5C4)n3)c2C)C1 (stereo partly shown)    0.093
CO[C@H]1CN(c2nc(-c3cccc(C)c3OCc3ccc4c(c3C)CCN(C3COC3)C4)cs2)CC[C@H]1C(=O)O    0.11
Cc1ccc(OCc2ccc3c(c2C)CCN(C2CCOCC2)CC3)c(-c2csc(N3C[C@@H]4C[C@]4(C(=O)O)C3)n2)c1    0.1
CO[C@H]1CN(c2cccc(-c3cccc(C)c3OCc3ccc4c(c3F)CCN(C3COC3)CC4)n2)CC[C@H]1C(=O)O    0.122
CO[C@H]1CN(c2cccc(-c3cccc(C)c3OCc3cc(F)c4c(c3)CCN(C3CCOCC3)CC4)n2)CC[C@H]1C(=O)O    0.12
Cc1cc(CN2CCc3c(ccc(COc4ccccc4-c4cccc(N5CC[C@@]6(C(=O)O)C[C@H]6C5)n4)c3C)C2)no1    0.0995
COc1cc(COc2c(C)cccc2-c2cccc(N3C[C@@H]4C[C@]4(C(=O)O)C3)n2)cc2c1CN(C1CCOCC1)CC2    0.11
Cc1ccc(OCc2ccc3c(c2C)CCN(C2CCCOC2)CC3)c(-c2csc(N3CC[C@@]4(C(=O)O)C[C@H]4C3)n2)c1 (stereo partly shown)    0.11
COC[C@H]1N(c2cccc(-c3cc(C)ccc3OCc3ccc4c(c3C)CCN(C3CCOCC3)C4)n2)C[C@@H]2C[C@@]21C(=O)O    0.144
Cc1cc(COc2c(C)cccc2-c2cccc(N3CC[C@@]4(C(=O)O)C[C@H]4C3)n2)cc2c1CN(C1CCOCC1)CC2    0.11
Cc1ccc(OCc2cc(C)c3c(c2)CCN(C2CCCOC2)C3)c(-c2csc(N3CC[C@@]4(C(=O)O)C[C@H]4C3)n2)c1 (mixture of isomers)    0.11
Cc1ccc(OCc2cc(C)c3c(c2C)CCN(C2CCOCC2)C3)c(-c2csc(N3CC[C@@]4(C(=O)O)C[C@H]4C3)n2)c1    0.14
CO[C@@H]1CN(c2cccc(-c3cccc(C)c3OCc3ccc4c(c3)C(C)(C)CN(C3COC3)CC4)n2)CC[C@@H]1C(=O)O    0.129
